# test.summary: self-splicing fitness, log relative to wild type (ln ratio); higher = more splicing; Tetrahymena group I intron in knt gene, E. coli kanamycin selection, DiMSum; sequences stand for … in CUCUCU…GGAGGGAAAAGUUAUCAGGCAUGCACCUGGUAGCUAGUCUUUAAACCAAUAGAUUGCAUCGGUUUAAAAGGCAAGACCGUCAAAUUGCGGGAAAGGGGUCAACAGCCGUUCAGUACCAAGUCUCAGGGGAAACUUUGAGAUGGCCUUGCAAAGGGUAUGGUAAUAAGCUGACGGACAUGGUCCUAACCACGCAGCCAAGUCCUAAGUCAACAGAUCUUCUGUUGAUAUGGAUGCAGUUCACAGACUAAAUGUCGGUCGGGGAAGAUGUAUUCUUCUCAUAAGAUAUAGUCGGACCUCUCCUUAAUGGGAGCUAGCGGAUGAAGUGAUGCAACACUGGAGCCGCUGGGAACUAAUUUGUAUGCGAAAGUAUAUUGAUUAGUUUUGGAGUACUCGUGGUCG;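 also: selection with 25 µg/mL kanamycin versus none on LB agar overnight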
# reported.conditions: 30 °C
Field: self-splicing fitness (ln). Provide a value for each of the sequences that follow.
Answers are plain numbers.

Below are worked cases with known answers.
[
  {
    "seq.string": "CUCGAGCAAUAUUACGGAUA",
    "recorded.number": -2.79
  },
  {
    "seq.string": "GCGCAGCAAUAUUACGAUUC",
    "recorded.number": -0.291
  },
  {
    "seq.string": "UUAAAGCAAUAUUACGAUAU",
    "recorded.number": -1.05
  }
]

Give one value of self-splicing fitness (ln) per listed sequence.
1. CGUAAGCAAUAUUACGUGAC
2. CAUAAGCAAUAUUACGAAGU
3. CAGUAGCAAUAUUACGCUCU

-3.04
-3.15
-2.44

###

Field: self-splicing fitness (ln). Provide a value for each of the sequences that follow.
# test.summary: self-splicing fitness, log relative to wild type (ln ratio); higher = more splicing; Tetrahymena group I intron in knt gene, E. coli kanamycin selection, DiMSum; sequences stand for … in CUCUCU…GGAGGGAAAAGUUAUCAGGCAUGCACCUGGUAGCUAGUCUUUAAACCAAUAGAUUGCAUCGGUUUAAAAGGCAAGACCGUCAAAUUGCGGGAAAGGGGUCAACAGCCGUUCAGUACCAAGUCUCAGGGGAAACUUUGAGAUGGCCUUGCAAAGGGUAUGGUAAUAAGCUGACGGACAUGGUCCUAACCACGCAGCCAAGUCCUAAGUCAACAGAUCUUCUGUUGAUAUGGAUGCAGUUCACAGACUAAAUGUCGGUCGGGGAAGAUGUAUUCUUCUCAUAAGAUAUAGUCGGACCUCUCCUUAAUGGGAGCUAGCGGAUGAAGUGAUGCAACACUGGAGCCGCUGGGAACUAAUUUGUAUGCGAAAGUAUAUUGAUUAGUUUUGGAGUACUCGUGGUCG
# reported.conditions: 37 °C
Numbers only.

Below are worked cases with known answers.
[
  {
    "seq.string": "AACCAGCAAUAUUACGGCAU",
    "self-splicing fitness (ln)": 0.376
  },
  {
    "seq.string": "CGGUAGCAAUAUUACGUCGC",
    "self-splicing fitness (ln)": -2.14
  },
  {
    "seq.string": "GCUGAGCAAUAUUACGUGCG",
    "self-splicing fitness (ln)": -1.01
  },
  {
    "seq.string": "GAGAAGCAAUAUUACGUCAC",
    "self-splicing fitness (ln)": -0.67
  },
  {
    "seq.string": "CCCUAGCAAUAUUACGAUCA",
    "self-splicing fitness (ln)": -2.22
  }
]

Give one value of self-splicing fitness (ln) per listed sequence.
1. AAUUAGCAAUAUUACGAAGG
2. AUAAAGCAAUAUUACGGAUC
3. GAGGAGCAAUAUUACGCUAU

-1.88
-0.273
-2.05

###

# test.summary: self-splicing fitness, log relative to wild type (ln ratio); higher = more splicing; Tetrahymena group I intron in knt gene, E. coli kanamycin selection, DiMSum; sequences stand for … in CUCUCU…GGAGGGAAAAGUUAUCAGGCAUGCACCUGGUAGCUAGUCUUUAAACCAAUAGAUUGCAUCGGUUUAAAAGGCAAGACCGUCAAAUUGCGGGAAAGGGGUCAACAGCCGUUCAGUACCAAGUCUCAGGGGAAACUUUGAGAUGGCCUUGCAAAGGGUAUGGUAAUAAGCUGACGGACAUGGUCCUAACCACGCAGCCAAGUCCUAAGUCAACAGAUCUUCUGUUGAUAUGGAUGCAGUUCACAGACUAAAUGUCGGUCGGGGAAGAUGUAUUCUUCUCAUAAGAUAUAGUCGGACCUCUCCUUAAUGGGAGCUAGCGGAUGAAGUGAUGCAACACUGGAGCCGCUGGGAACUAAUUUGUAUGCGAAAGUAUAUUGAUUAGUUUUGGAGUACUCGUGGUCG
# reported.conditions: 30 °C
Answer -1 if self-splicing fitness (ln) is under -2, and 1 if it is -2 or more.

Solved entries (count: 5):
[
  {
    "seq.string": "UGUAAGCAAUAUUACGACCU",
    "label.value": 1
  },
  {
    "seq.string": "UCGCAGCAAUAUUACGUGGA",
    "label.value": 1
  },
  {
    "seq.string": "CGGUAGCAAUAUUACGAUUC",
    "label.value": -1
  },
  {
    "seq.string": "CCCUAGCAAUAUUACGUAGC",
    "label.value": -1
  },
  {
    "seq.string": "CGAAAGCAAUAUUACGGCGU",
    "label.value": 1
  }
]

hey, is self-splicing fitness (ln) for this one >= -2? "UACCAGCAAUAUUACGACGG" 1

hey, is self-splicing fitness (ln) for this one >= -2? "ACUCAGCAAUAUUACGCAAC" -1

hey, is self-splicing fitness (ln) for this one >= -2? "AGAAAGCAAUAUUACGGUUG" -1

hey, is self-splicing fitness (ln) for this one >= -2? "AAGAAGCAAUAUUACGAACA" 1

hey, is self-splicing fitness (ln) for this one >= -2? "GAGCAGCAAUAUUACGCCAU" -1

hey, is self-splicing fitness (ln) for this one >= -2? "GAGGAGCAAUAUUACGUUAU" -1

hey, is self-splicing fitness (ln) for this one >= -2? "AGUCAGCAAUAUUACGUAGA" -1

hey, is self-splicing fitness (ln) for this one >= -2? "GCUUAGCAAUAUUACGUUUG" -1

hey, is self-splicing fitness (ln) for this one >= -2? "AUUAAGCAAUAUUACGAUUC" 1

hey, is self-splicing fitness (ln) for this one >= -2? "GGACAGCAAUAUUACGUAUU" 1

hey, is self-splicing fitness (ln) for this one >= -2? "GAUCAGCAAUAUUACGACAU" 1

hey, is self-splicing fitness (ln) for this one >= -2? "GGCCAGCAAUAUUACGGAUC" 1

hey, is self-splicing fitness (ln) for this one >= -2? "CAUUAGCAAUAUUACGUAAG" 1

hey, is self-splicing fitness (ln) for this one >= -2? "GACCAGCAAUAUUACGGUUA" 1

hey, is self-splicing fitness (ln) for this one >= -2? "CGUAAGCAAUAUUACGCGCG" -1

hey, is self-splicing fitness (ln) for this one >= -2? "GAGAAGCAAUAUUACGGGAG" -1

hey, is self-splicing fitness (ln) for this one >= -2? "CCUUAGCAAUAUUACGUACG" -1

hey, is self-splicing fitness (ln) for this one >= -2? "UAGCAGCAAUAUUACGUGGG" -1

hey, is self-splicing fitness (ln) for this one >= -2? "AUGGAGCAAUAUUACGGUCA" -1

hey, is self-splicing fitness (ln) for this one >= -2? "CUCCAGCAAUAUUACGCCAU" -1

hey, is self-splicing fitness (ln) for this one >= -2? "ACCUAGCAAUAUUACGAGAG" -1

hey, is self-splicing fitness (ln) for this one >= -2? "GUUGAGCAAUAUUACGGCAC" 1

###

# test.summary: self-splicing fitness, log relative to wild type (ln ratio); higher = more splicing; Tetrahymena group I intron in knt gene, E. coli kanamycin selection, DiMSum; sequences stand for … in CUCUCU…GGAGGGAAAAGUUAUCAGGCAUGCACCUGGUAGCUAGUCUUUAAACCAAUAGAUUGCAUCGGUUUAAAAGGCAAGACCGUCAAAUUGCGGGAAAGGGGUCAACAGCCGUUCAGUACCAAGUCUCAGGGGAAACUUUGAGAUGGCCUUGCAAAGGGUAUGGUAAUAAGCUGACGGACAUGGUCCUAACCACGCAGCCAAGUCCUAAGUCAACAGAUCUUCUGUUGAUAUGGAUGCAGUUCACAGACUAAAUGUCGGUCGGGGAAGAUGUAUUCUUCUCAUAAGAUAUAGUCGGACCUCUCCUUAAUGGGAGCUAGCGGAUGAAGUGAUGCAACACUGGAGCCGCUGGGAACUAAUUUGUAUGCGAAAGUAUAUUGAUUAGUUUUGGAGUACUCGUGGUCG
# reported.conditions: 30 °C
Field: self-splicing fitness (ln). Provide a value for each of the sequences that follow.
Answers are plain numbers.

Give one value of self-splicing fitness (ln) per listed sequence.
1. GCCCAGCAAUAUUACGCCUU
2. UAGUAGCAAUAUUACGAACG

1: -1.02; 2: -0.961

Give one value of self-splicing fitness (ln) per listed sequence.
1. CGGAAGCAAUAUUACGUCUC
2. GAGGAGCAAUAUUACGCGUG
3. CCAAAGCAAUAUUACGCUCG
4. GUGGAGCAAUAUUACGGAGC
5. UGGUAGCAAUAUUACGUAUG

1: -4.07; 2: -1.55; 3: -1.97; 4: -2.43; 5: -1.66

Give one value of self-splicing fitness (ln) per listed sequence.
1. GGUGAGCAAUAUUACGAACU
2. CGCGAGCAAUAUUACGAAUA
3. GGCGAGCAAUAUUACGCACA
4. UCAUAGCAAUAUUACGACUA
5. GCAUAGCAAUAUUACGGAUU
6. CUCCAGCAAUAUUACGCUUG
7. UCACAGCAAUAUUACGCGUA

[-2.18, -2.84, -0.586, -2.82, -2.81, -3.52, -1.09]

Give one value of self-splicing fitness (ln) per listed sequence.
1. GGAUAGCAAUAUUACGAUUG
2. CAACAGCAAUAUUACGUGAG

[-1.55, -0.531]
